- PROTOCOL: Antiinflammatory activity in human PMNC cells assessed as inhibition of fMLP-induced NOX-dependent ROS production up to 50 uM
- Type: functional, cell-based
- MEASUREMENT PARAMETERS: Homo sapiens, PMNC; read-out: IC50
Binarize IC50 at 20 µM; below is 1, at or above is -1.

Exam item: Lab note: confirm whether the reported IC50 for this compound is below 20 µM, equality not counting. compound: C=C(CC[C@@H](C)[C@H]1CC[C@H]2C3=C(C(=O)C[C@]12C)[C@@]1(C)CCC(=O)[C@@H](C)[C@@H]1CC3=O)C(C)C(=O)O (some centres not stated) [ZHANKUIC ACID A]
Marked response: -1

Exam item: Record: CC(C)[C@@H](C)/C=C/[C@@H](C)[C@H]1CC[C@H]2C3=CC=C4C[C@@H](O)CC[C@]4(C)[C@H]3CC[C@]12C [ERGOSTEROL]
Marked response: -1

Exam item: Also, C=C(CC[C@@H](C)[C@H]1CC[C@H]2C3=C(C[C@H](O)[C@]12C)[C@@]1(C)CC[C@@H](O)[C@@H](C)[C@@H]1CC3=O)C(C)C(=O)OC (some centres not stated) [METHYL ANTCINATE H] please.
Marked response: 1

Exam item: How about C=C(CC[C@@H](C)[C@H]1CC[C@H]2C3=C(C(=O)C[C@]12C)[C@@]1(C)CCC(=O)[C@@H](C)[C@@H]1CC3)C(C)C(=O)O (some centres not stated) [ANTCIN A] ?
Marked response: -1

Exam item: // repeat for C=C(CC[C@@H](C)[C@H]1CC[C@@H]2C3=C(C(=O)C[C@@]21C)[C@@]1(C)CCC(=O)[C@@H](C)[C@@H]1CC3)C(C)C(=O)OC (some centres not stated) [CAMPHORATIN J] and report
Marked response: 1

Exam item: Another compound to look at: C=C(CC[C@@H](C)[C@H]1CC[C@H]2C3=C(C(=O)C[C@]12C)[C@@]1(C)CC[C@@H](O)[C@](C)(O)[C@@H]1C[C@@H]3O)C(C)C(=O)O (some centres not stated) [ANTCIN K]
Marked response: -1
